Cited source: patent US8486991B2

Listed below: pEC50 values for each entry.
- Tested on: HIV-1 IIIB in H9 cells
- PROTOCOL DESCRIPTION: Drug susceptibility assay, IIIB in H9 cells
- Assay type: cell-based
- ASSAY SETUP: Human immunodeficiency virus 1, IIIB, H9; Table 17; read-out: Average EC50 Values ± Standard Deviation, host H9, virus IIIB
- Text: The virus and host-cell dependency of Compound I, Compound III and control drugs was further examined in drug susceptibility assays performed across 3 different subtype B wild-type HIV-1 strains and 5 different cell lines.
On this scale, pEC50 is minus log10 of a concentration expressed in M (mol/L).

                                   compound            assay_system  endpoint  quantitative_readout
0  CO[P@](=O)(c1cc(C)cc(/C=C/C#N)c1)c1c(C(N)=O)[nH]c2ccc(Cl)cc12  HIV-1 IIIB in H9 cells     pEC50                  9.30

# ---- query compound ----
Which value of pEC50 has been reported for O=C1Nc2ccc(Cl)cc2C(C#CC2CC2)(C(F)(F)F)O1 (centres unmarked) [EFV, reference compound] in the records?
8.82

###

- System: HIV-1 IIIB w.t. virus
- PROTOCOL DESCRIPTION: microbe, parasite or virus in culture
- Format: cell-based
- ASSAY SETUP: Human immunodeficiency virus 1, MT4; Table 15; IIIB, CPE; read-out: Average EC50 Values ± Standard Deviation, W.T.
Listed below: EC50 values for each entry.
Just the number please, in nM, no unit attached.

>>> df
                                        mol  measurement_unit  quantitative_readout
0  CO[P@](=O)(c1cc(C)cc(/C=C/C#N)c1)c1c(C(N)=O)[nH]c2ccc(Cl)cc12                nM                   0.5

# ---- query compound ----
Which value of EC50 has been reported for "CO[P@](=O)(c1cc(C)cc(/C=C/C#N)c1)c1c(C(N)=O)[nH]c2ccc(Cl)c(F)c12" in the records?
1

###

- ASSAY SYSTEM: human DNA polymerase alpha (Homo sapiens)
- Sequence (P09884 whole entry): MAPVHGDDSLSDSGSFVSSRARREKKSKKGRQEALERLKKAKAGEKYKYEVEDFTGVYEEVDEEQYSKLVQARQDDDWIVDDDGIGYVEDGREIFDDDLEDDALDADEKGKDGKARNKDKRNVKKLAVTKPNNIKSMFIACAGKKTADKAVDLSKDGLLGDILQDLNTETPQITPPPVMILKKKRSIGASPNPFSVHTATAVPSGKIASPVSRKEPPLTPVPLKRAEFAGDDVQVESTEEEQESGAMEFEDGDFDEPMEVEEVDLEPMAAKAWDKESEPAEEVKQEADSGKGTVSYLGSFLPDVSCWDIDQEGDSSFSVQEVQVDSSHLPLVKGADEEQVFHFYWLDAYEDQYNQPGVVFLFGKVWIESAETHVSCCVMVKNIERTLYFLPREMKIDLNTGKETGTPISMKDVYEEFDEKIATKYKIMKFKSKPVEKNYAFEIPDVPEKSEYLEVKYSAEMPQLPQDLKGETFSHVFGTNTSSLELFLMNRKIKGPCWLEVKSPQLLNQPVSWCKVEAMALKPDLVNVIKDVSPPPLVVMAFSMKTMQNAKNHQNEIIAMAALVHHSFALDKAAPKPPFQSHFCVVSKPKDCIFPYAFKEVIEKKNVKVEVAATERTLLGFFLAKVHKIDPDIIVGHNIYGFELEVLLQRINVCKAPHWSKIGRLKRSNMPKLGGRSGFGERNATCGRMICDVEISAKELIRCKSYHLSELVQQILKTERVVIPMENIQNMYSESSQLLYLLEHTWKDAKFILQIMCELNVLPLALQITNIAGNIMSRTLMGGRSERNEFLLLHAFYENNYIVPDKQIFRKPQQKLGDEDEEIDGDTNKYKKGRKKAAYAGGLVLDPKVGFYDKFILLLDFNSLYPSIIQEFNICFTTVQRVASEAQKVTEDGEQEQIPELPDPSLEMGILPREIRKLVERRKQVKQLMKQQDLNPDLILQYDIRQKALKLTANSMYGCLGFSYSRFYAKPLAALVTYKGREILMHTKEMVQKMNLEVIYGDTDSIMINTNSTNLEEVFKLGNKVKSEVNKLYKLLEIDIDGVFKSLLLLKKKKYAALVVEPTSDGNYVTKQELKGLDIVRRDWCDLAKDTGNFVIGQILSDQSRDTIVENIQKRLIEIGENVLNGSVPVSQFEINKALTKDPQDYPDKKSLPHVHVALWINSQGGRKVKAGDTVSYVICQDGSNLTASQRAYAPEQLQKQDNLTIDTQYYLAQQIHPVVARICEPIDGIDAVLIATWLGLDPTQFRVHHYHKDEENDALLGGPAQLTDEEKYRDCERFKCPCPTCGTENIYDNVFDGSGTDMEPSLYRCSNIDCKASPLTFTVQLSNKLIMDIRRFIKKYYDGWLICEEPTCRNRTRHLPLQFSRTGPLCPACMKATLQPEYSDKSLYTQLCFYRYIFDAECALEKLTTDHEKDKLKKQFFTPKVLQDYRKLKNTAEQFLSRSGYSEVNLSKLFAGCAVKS
- PROTOCOL DESCRIPTION: Human cellular DNA polymerase alpha assay
- Assay type: biochemical
- ASSAY SETUP: Average IC50 Values ± Standard Deviation, DNA Pol Alpha, Table 5
ENDPOINT: IC50 (µM)
Just the number please, in µM, no unit attached.

Which value of IC50 has been reported for "CO[P@](=O)(c1cc(C)cc(/C=C/C#N)c1)c1c(C(N)=O)[nH]c2ccc(Cl)c(F)c12" in the records?
146

###

- ASSAY SYSTEM: CYP2D6 (Homo sapiens)
- Sequence (P10635 whole entry): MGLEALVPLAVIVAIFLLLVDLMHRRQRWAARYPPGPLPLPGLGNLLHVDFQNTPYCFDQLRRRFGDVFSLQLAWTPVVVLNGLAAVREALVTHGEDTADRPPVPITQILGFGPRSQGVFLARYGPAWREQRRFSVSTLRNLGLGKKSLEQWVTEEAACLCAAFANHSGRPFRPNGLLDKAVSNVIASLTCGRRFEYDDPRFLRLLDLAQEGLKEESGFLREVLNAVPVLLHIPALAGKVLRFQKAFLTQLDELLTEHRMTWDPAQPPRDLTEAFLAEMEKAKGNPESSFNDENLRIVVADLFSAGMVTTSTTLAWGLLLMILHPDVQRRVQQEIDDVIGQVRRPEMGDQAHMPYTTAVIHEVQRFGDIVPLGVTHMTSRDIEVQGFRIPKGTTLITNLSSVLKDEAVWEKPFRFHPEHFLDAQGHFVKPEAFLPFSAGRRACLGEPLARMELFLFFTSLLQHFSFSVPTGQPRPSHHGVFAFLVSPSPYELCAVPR
- PROTOCOL DESCRIPTION: Recombinant CYP450 inhibition, fluorometric, CYP2D6
- Assay type: in vitro ADME
- Set-up: from tissue; host or cells: pooled human liver microsomes
- ASSAY SETUP: recombinant human CYP2D6 microsomal protein, read-out: percentage of inhibition at the highest concentration tested, CYP2D6
ENDPOINT: inhibition at 10 µM (%)
Just the number please, in %, no unit attached.

In [3]: df
Out[3]:
                                   compound  measurement_unit  quantitative_readout
0  CO[P@](=O)(c1cc(C)cc(/C=C/C#N)c1)c1c(C(N)=O)[nH]c2ccc(Cl)cc12 [Compound III]                 %                  15.2

# ---- query compound ----
Which value of inhibition at 10 µM has been reported for CO[P@@](=O)(c1cc(C)cc(/C=C/C#N)c1)c1c(C(N)=O)[nH]c2ccc(Cl)cc12 [IV] in the records?
29.1
